Test: Selectivity ratio of Ki for delta opioid receptor in mouse whole brain without cerebellum to Ki for kappa opioid receptor in guinea pig cerebellum
What Ratio Ki was measured for each of the following?
Numbers only.

CC1(C)O[C@@H]2N3[C@H]1O[C@]1(CC[C@@]4(O)[C@H]5Cc6ccc(O)c7c6[C@@]4(CCN5CC4CC4)[C@H]1O7)[C@@H]3OC2(C)C | 0.909

Would you kindly look at the next entry?
Give a short answer stating reported Ratio Ki for `CC1(C)O[C@H]2N3[C@@H]1O[C@]1(CC[C@@]4(O)[C@H]5Cc6ccc(O)c7c6[C@@]4(CCN5CC4CC4)[C@H]1O7)[C@H]3OC2(C)C` .
9.1

The reported measurements were obtained from ChEMBL document CHEMBL2203184.
